# Tested on: 377384-186-R-J1-PDC complex spheroid viability;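 note: spheroids exposed to compounds for seven days before readout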
# experimental protocol: Anticancer human tumor 377384-186-R-J1-PDC patient-derived pancreatic carcinoma cell line growth inhibition [RAS]
# measurement parameters: curve of first compound; second compound 0.00949 µM
Below, each entry is listed with its recorded IC50.

| compound | tested target | IC50 |
| --- | --- | --- |
| CCC(CC)c1cc(NC2CCC(N)C2)n2nccc2n1 (configuration not stated) + CCn1c(-c2cc(N3CCN(C)CC3)cnc2C(C)OC)c2c3cc(ccc31)-c1csc(n1)CC(NC(=O)C1CC1C)C(=O)N1CCCC(N1)C(=O)OCC(C)(C)C2 | 377384-186-R-J1-PDC complex spheroid viability | < 31.6 nM |

Req: Entry CC(=O)OC12COC1CC(O)C1(C)C(=O)C(O)C3=C(C)C(OC(=O)C(O)C(NC(=O)OC(C)(C)C)c4ccccc4)CC(O)(C(OC(=O)c4ccccc4)C21)C3(C)C (configuration not stated) + CCn1c(-c2cc(N3CCN(C)CC3)cnc2C(C)OC)c2c3cc(ccc31)-c1csc(n1)CC(NC(=O)C1CC1C)C(=O)N1CCCC(N1)C(=O)OCC(C)(C)C2 has what IC50?
Resp: < 31.6 nM
